Assignment: determine reported pIC50 for the given compounds.
Target: Cytochrome P450 2D6 (Homo sapiens)
Assay: Inhibition of recombinant CYP2D6
Give bare numbers, as −log10 of the molar value.

[[record]]
smilesstr = "C[C@@H]1CN(C(=O)c2ccccc2)CCN1C(=O)C(=O)c1c[nH]c2ncccc12"
measuredon = "Cytochrome P450 2D6 (Homo sapiens)"
quantitativereadout = 4.77

[[record]]
smilesstr = "COc1ccnc2[nH]cc(C(=O)C(=O)N3CCN(C(=O)c4ccccc4)C[C@H]3C)c12"
measuredon = "Cytochrome P450 2D6 (Homo sapiens)"
quantitativereadout = 5.01

[[record]]
smilesstr = "C[C@@H]1CN(C(=O)c2ccccc2)CCN1C(=O)C(=O)c1c[nH]c2cnccc12"
measuredon = "Cytochrome P450 2D6 (Homo sapiens)"
quantitativereadout = 4.42


Let us move to another entry and its pIC50.
// field: pIC50; key: C[C@@H]1CN(C(=O)c2ccccc2)CCN1C(=O)C(=O)c1c[nH]c2ccccc12 ; value = 5.32

###

Assay: Cytotoxicity against HEK cells
Assay type: cell-based, HEK293
Conditions: human
testReadout: CC50

// field: CC50; key: COc1ncc(OC)c2c(C(=O)C(=O)N3CCN(C(=O)c4ccccc4)CC3)c[nH]c12 ; value = ≥ 120 µM

###

Assignment: determine reported half-life for the given compounds.
Assay: Terminal half life in rat at 5 mg/kg, iv
Assay type: ADME, organism-based
Design: dose 5 mg/kg, route intravenous
Details: in vivo, read-out: beta t1/2 (converted)
Answers are plain numbers, in h.

[[record]]
smilesstr = "COc1ccnc2[nH]cc(C(=O)C(=O)N3CCN(C(=O)c4ccccc4)C[C@H]3C)c12"
testreadout = "half-life"
quantitativereadout = 0.3


// field: half-life; key: COc1ncc(OC)c2c(C(=O)C(=O)N3CCN(C(=O)c4ccccc4)CC3)c[nH]c12 ; value = 2.4

###

Experiment: Cmax in dog at 200 mg/kg
Assay type: ADME, organism-based, Canis lupus familiaris
Design: dose 200 mg/kg
Settings: in vivo
testReadout: Cmax

// field: Cmax; key: COc1ncc(OC)c2c(C(=O)C(=O)N3CCN(C(=O)c4ccccc4)CC3)c[nH]c12 ; value = 33 µM

###

Assay: Solubility at pH 1.5
Assay type: physicochemical
Settings: buffer
testReadout: solubility (µg/mL)
Numbers only, in µg/mL.

// field: solubility; key: COc1ncc(OC)c2c(C(=O)C(=O)N3CCN(C(=O)c4ccccc4)CC3)c[nH]c12 ; value = 900

###

Assignment: determine reported CC50 at 72 h for the given compounds.
Experiment: Cytotoxicity against human MT2 cells after 3 days by XTT assay
Type: cell-based

[[record]]
smilesstr = "C[C@@H]1CN(C(=O)c2ccccc2)CCN1C(=O)C(=O)c1c[nH]c2ncccc12"
testreadout = "CC50 at 72 h"
result = "280 µM"

[[record]]
smilesstr = "C[C@@H]1CN(C(=O)c2ccccc2)CCN1C(=O)C(=O)c1c[nH]c2cnccc12"
testreadout = "CC50 at 72 h"
result = "> 300 µM"


Quick request: CC50 at 72 h for each listed item, please.
1. COc1ncc(OC)c2c(C(=O)C(=O)N3CCN(C(=O)c4ccccc4)CC3)c[nH]c12
2. C[C@@H]1CN(C(=O)c2ccccc2)CCN1C(=O)C(=O)c1c[nH]c2ccncc12
3. C[C@@H]1CN(C(=O)c2ccccc2)CCN1C(=O)C(=O)c1c[nH]c2cccnc12
4. COc1ccnc2[nH]cc(C(=O)C(=O)N3CCN(C(=O)c4ccccc4)C[C@H]3C)c12
5. C[C@@H]1CN(C(=O)c2ccccc2)CCN1C(=O)C(=O)c1c[nH]c2ccccc12

[A]
> 300 µM
> 300 µM
> 300 µM
> 300 µM
200 µM

###

Biological target: Cytochrome P450 3A4 (Homo sapiens, UniProt P08684)
Sequence (P08684 whole entry): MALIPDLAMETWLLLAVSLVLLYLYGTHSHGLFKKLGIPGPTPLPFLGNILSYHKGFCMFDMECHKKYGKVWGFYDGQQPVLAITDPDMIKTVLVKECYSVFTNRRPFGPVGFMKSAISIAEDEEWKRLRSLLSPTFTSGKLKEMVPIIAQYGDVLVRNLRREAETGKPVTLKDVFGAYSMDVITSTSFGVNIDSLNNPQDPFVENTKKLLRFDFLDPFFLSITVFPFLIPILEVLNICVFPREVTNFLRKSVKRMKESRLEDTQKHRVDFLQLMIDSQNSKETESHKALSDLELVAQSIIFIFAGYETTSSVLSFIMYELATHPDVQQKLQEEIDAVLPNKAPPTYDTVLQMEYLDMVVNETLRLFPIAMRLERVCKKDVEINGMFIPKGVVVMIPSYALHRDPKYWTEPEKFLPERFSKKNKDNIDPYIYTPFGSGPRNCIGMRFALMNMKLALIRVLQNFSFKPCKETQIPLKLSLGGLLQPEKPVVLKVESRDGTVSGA
Experiment: Inhibition of recombinant CYP3A4 using 7-benzyloxyresorufin as substrate
Type: ADME
pIC50: −log10 of the molar value.
testReadout: pIC50

[[record]]
smilesstr = "C[C@@H]1CN(C(=O)c2ccccc2)CCN1C(=O)C(=O)c1c[nH]c2cnccc12"
testreadout = "pIC50"
result = "< 4.40"

[[record]]
smilesstr = "C[C@@H]1CN(C(=O)c2ccccc2)CCN1C(=O)C(=O)c1c[nH]c2cccnc12"
testreadout = "pIC50"
result = "< 4.40"

[[record]]
smilesstr = "C[C@@H]1CN(C(=O)c2ccccc2)CCN1C(=O)C(=O)c1c[nH]c2ncccc12"
testreadout = "pIC50"
result = "< 4.40"

[[record]]
smilesstr = "COc1ncc(OC)c2c(C(=O)C(=O)N3CCN(C(=O)c4ccccc4)CC3)c[nH]c12"
testreadout = "pIC50"
result = "< 4.40"


Let us move to another entry and its pIC50.
// field: pIC50; key: C[C@@H]1CN(C(=O)c2ccccc2)CCN1C(=O)C(=O)c1c[nH]c2ccccc12 ; value = < 4.40

###

Assay: Cytotoxicity against human larynx cancer cells
Format: cell-based, Cancer cell lines
testReadout: CC50

// field: CC50; key: COc1ncc(OC)c2c(C(=O)C(=O)N3CCN(C(=O)c4ccccc4)CC3)c[nH]c12 ; value = ≥ 120 µM

###

Target: Cytochrome P450 2D6 (Homo sapiens, UniProt P10635)
Sequence (P10635 whole entry): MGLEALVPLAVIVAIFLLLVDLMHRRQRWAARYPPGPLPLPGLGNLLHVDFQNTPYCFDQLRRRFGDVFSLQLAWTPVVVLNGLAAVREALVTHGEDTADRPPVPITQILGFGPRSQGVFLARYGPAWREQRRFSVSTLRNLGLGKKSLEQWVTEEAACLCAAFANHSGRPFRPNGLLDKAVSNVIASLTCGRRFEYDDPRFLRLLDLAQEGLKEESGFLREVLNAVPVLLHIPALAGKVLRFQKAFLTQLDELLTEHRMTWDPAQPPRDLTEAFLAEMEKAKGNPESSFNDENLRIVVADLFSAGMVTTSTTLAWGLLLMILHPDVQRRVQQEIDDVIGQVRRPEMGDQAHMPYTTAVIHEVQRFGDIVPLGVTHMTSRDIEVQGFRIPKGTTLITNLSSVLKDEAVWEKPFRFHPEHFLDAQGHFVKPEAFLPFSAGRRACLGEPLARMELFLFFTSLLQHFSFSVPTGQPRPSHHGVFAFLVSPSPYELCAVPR
Assay: Inhibition of recombinant CYP2D6
pIC50: −log10 of the molar value.
testReadout: pIC50

# annotated cases, reported pIC50 shown
[[record]]
smilesstr = "C[C@@H]1CN(C(=O)c2ccccc2)CCN1C(=O)C(=O)c1c[nH]c2ccncc12"
measuredon = "Cytochrome P450 2D6 (Homo sapiens, UniProt P10635)"
result = "< 4.40"

[[record]]
smilesstr = "COc1ncc(OC)c2c(C(=O)C(=O)N3CCN(C(=O)c4ccccc4)CC3)c[nH]c12"
measuredon = "Cytochrome P450 2D6 (Homo sapiens, UniProt P10635)"
result = "< 4.40"


// field: pIC50; key: C[C@@H]1CN(C(=O)c2ccccc2)CCN1C(=O)C(=O)c1c[nH]c2cccnc12 ; value = < 4.40

The reported measurements were obtained from ChEMBL document CHEMBL1156066.
